test: Permeability of Compound I; format: in vitro ADME; settings: not told
reportedMetric: Papp
Please don't drop the unit; write it after the number.

Quick note, Papp for C[C@@H]1[C@H](c2ccccc2)C[C@H](NC(=O)c2cnc3c(c2)C[C@@]2(C3)C(=O)Nc3ncccc32)C(=O)N1CC(F)(F)F [Compound I, trihydrate] landed at 16.6 ×10⁻⁶ cm/s
